protocol summary: Jurkat cell viability reduction – Jurkat E6.1, NIH starter set, primary screen (AID 364);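 note: 100% = cells treated with 4 µM doxorubicin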
details: Jurkat E6.1 viability, ATP luminescence, 48 h; at 4 µM; hits give high values
Hit rate of the full screen: of about 3,300 compounds, about 50 (2%) were called active. These entries were drawn from the full list. Measured potencies and affinities stand elsewhere.
Entries and their inhibition values follow.
property label: inhibition (%)

- CCCCCOc1ccc(Cl)cc1CN1CCOCC1: -0.4
- CC1(c2cnc(Nc3ccccc3)s2)CCC(=O)O1 (stereo unspecified): 3.7
- CN1CCc2c(sc3ncn4nc(-c5ccccc5O)nc4c23)C1: 2.9
- CC(C)C(C(=O)Nc1ncn[nH]1)N1C(=O)c2ccccc2C1=O (stereo unspecified): 1
- COc1ccccc1NC(=O)Nc1nnc(C(C)C)s1: 9.4
- CC1CN(C2CCN(S(=O)(=O)c3ccccc3)CC2)CC(C)O1 (stereo unspecified): 7.8
- OCCNc1ncnc2c1c(-c1ccccc1)c(-c1ccccc1)n2Cc1ccco1: 11.5
- Cc1ccc(S(=O)(=O)NC(=O)NCc2ccc3c(c2)OCO3)cc1: 7.5
- CCOC(=O)C1=C(N)c2ccccc2CC1C(C)C (stereo unspecified): 7
- CCCNc1ncnc2c1cnn2-c1ccc(OC)cc1: -3.3
- c1ccc(C2=Nn3c(nnc3-c3ccccn3)SC2)cc1: -9.2
- CCCCOc1ccc(C(=O)Nc2ccc(N3CCN(C(C)=O)CC3)cc2)cc1: 6.7
- Cc1nc(NS(=O)(=O)c2ccccc2)sc1NC(=O)OCCN(C)C: 9.6
- CCCOC(=O)CSC1=C(C#N)C(c2ccc3c(c2)OCO3)CC(=O)N1 (stereo unspecified): 29.3
- CCOc1ccc(C2=Nn3c(nnc3-c3ccccn3)SC2)cc1: 2.6
- Cc1cc(C)n(CC(=O)c2ccccc2)c(=O)c1C#N: -17.6
- Cc1cc(=O)oc(C)c1C(=O)NC12CC3CC(CC(C3)C1)C2: 0.6
- COc1ccc(N2CC(=O)N(c3ccc(OC)c(OC)c3)CC2=O)cc1OC: -0.2
- O=C(C1CCCCC1)N1CCCn2c1nc1ccccc12: 1.8
- CC1CN(c2oc(-c3ccccc3Cl)nc2C#N)CC(C)O1 (stereo unspecified): -11.7
- Cc1ccc2cc(CNC(C)(C)C)c(=O)[nH]c2c1: 7.6
- CCCCCOC(=O)Cc1c(C)nc(-c2ccccc2)[nH]c1=O: 3.9
- COc1cccc(OC)c1-c1nn2c(-c3ccco3)nnc2s1: -5.6
- Cc1c(NS(=O)(=O)c2cccc3nsnc23)c(=O)n(-c2ccccc2)n1C: -5.3
- Cn1c(N)c(C#N)c(C#N)c1-c1ccccc1: -0.9
- Cn1c(=O)[nH]c(=O)c2c1nc(Br)n2CCSc1nnnn1-c1ccccc1: -0.6

Hello, the source for this data is PubChem BioAssay AID364, in case you need it.
